TEST: absorption spectrum (maximum absorption wavelength, molar extinction coefficient)
Format: physicochemical
ENDPOINT_LABEL: molar extinction coefficient

Consider the reported molar extinction coefficient for these molecules:
COCCOCCOCCOCCOCCOCCOCCC(=O)OCCOCCNc1c2c3c4c(c(OC)c(=O)c5c(O)cc(OC)c(c6c(OC)cc(NCCOCCOC(=O)CCOCCOCCOCCOCCOCCOCCOC)c(c1=O)c63)c54)CC(C)=C2	33,500 M^−1cm^−1
COc1c2c3c4c(c(NCc5cccc[n+]5CCCC(=O)O)c(=O)c5c(NCc6cccc[n+]6CCCC(=O)O)cc(OC)c(c6c(OC)cc(O)c(c1=O)c63)c54)C=C(C)C2C(C)=O (stereo not drawn) [HB-38c-N—COOH]	21,500 M^−1cm^−1

// next item, molar extinction coefficient requested
Query: So what's the measured molar extinction coefficient for this one? COc1c(NCC[N+]23CC[N+](C)(CC2)CC3)c2c(=O)cc(OC)c3c4c(OC)cc(=O)c5c(O)c(NCC[N+]67CC[N+](C)(CC6)CC7)c6c(c(c1C(C(C)=O)C(C)=C6)c23)c54 (stereo not drawn) [HB-41b]
Reply: 31,500 M^−1cm^−1

====

TEST: absorption spectrum (maximum absorption wavelength, molar extinction coefficient)
Format: physicochemical
ENDPOINT_LABEL: molar extinction coefficient

Reference set, count: 5
COc1c(NCCCC(=O)NCCCCS(=O)(=O)O)c2c(=O)cc(OC)c3c4c(OC)cc(=O)c5c(O)c(NCCCC(=O)NCCCCS(=O)(=O)O)c6c(c(c1CC(C)=C6)c23)c54 [HC-8b-NH—C4-SO3H]	31,500 M^−1cm^−1
COc1c(NCC2CCC(C(=O)O)CC2)c2c(=O)cc(OC)c3c4c(OC)cc(=O)c5c(O)c(NCC6CCC(C(=O)O)CC6)c6c(c(c1C(C(C)=O)C(C)=C6)c23)c54 (stereo not shown) [HB-13b]	28,000 M^−1cm^−1
CCCNc1c2c3c4c(c(OC)c(=O)c5c(NCCC)cc(OC)c(c6c(OC)cc(O)c(c1=O)c63)c54)C(C(C)=O)C(C)=C2 (stereo not shown) [HB-33d]	32,500 M^−1cm^−1
COCCOCCN1C(=O)CN(C(=O)OCCNc2c(NCCOC(=O)N3CC(=O)N(CCOCCOC)C(=O)C3)c3c(=O)cc(OC)c4c5c(OC)cc(=O)c6c(O)c(OC)c7c(c(c2C=C(C)C7C(C)=O)c34)c65)CC1=O (stereo not shown) [HB-40a-PEG1]	31,500 M^−1cm^−1
COCCOCCOCCOCCOCCOCCOCCC(=O)OCCNc1c2c3c4c(c(OC)c(=O)c5c(NCCOC(=O)CCOCCOCCOCCOCCOCCOCCOC)cc(OC)c(c6c(OC)cc(O)c(c1=O)c63)c54)CC(C)=C2 [HC-2d-PEG6]	31,500 M^−1cm^−1

Query: Quick one: molar extinction coefficient of COc1c2c3c4c(c(NCc5cccc[n+]5C)c(=O)c5c(O)cc(OC)c(c6c(OC)cc(NCc7cccc[n+]7C)c(c1=O)c63)c54)C=C(C)C2C(C)=O (stereo not shown) [HB-38d-N^+] ?
Reply: 21,500 M^−1cm^−1

Query: Give its molar extinction coefficient value. Item: COCCOCCOCCOCCOCCOCCOCCC(=O)N1CCC(CNc2c3c4c5c(c(OC)c(=O)c6c(O)cc(OC)c(c7c(OC)c(Br)c(NCC8CCN(C(=O)CCOCCOCCOCCOCCOCCOCCOC)CC8)c(c2=O)c47)c65)C(C(C)=O)C(C)=C3)CC1 (stereo not shown) [HB-31c-Br-PEG6]
Reply: 33,000 M^−1cm^−1

Query: Given COCCOCCOCCOCCOCCOCCOCCOCCOCCOCCOCCOCCOCCOCCOCCOCCOC(=O)C1CCC(CNc2c3c4c5c(c(OC)c(=O)c6c(NCC7CCC(C(=O)OCCOCCOCCOCCOCCOCCOCCOCCOCCOCCOCCOCCOCCOCCOCCOCCOC)CC7)cc(OC)c(c7c(OC)cc(O)c(c2=O)c74)c65)C(C(C)=O)C(C)=C3)CC1 (stereo not shown) [HB-13d-PEG16] , state its recorded molar extinction coefficient.
Reply: 30,500 M^−1cm^−1

Query: Give the measured molar extinction coefficient of COc1c2c3c4c(c(NCCCC(=O)O)c(=O)c5c(O)cc(OC)c(c6c(OC)cc(NCCCC(=O)O)c(c1=O)c63)c54)C=C(C)C2C(C)=O (stereo not shown) [HB-8d] .
Reply: 29,000 M^−1cm^−1

Query: Could you share which molar extinction coefficient value was measured for COCCOCCOCCOCCOCCOCCOCCC(=O)OCC1(Nc2c3c4c5c(c(OC)c(=O)c6c(O)cc(OC)c(c7c(OC)cc(NC8(COC(=O)CCOCCOCCOCCOCCOCCOCCOC)CC8)c(c2=O)c74)c65)C(C(C)=O)C(C)=C3)CC1 (stereo not shown) [HB-35c-PEG6] ?
Reply: 33,500 M^−1cm^−1

Query: Data request, read-out molar extinction coefficient, for COc1c2c3c4c(c(NO)c(=O)c5c(NO)cc(OC)c(c6c(OC)cc(O)c(c1=O)c63)c54)C=C(C)C2 [HC-37c]
Reply: 34,000 M^−1cm^−1

Query: Can you look up the measured molar extinction coefficient of COc1c2c3c4c(c(NCCOC(=O)N5CC(=O)NC(=O)C5)c(=O)c5c(NCCOC(=O)N6CC(=O)NC(=O)C6)cc(OC)c(c6c(OC)cc(O)c(c1=O)c63)c54)C=C(C)C2C(C)=O (stereo not shown) [HB-40c] for me?
Reply: 34,000 M^−1cm^−1

Query: Item COCCOCCOCCOCCOCCOCCOCCOCCOCCOCCOCCOCCOCCC(=O)N1CCC(CNc2c3c4c5c(c(OC)c(=O)c6c(NCC7CCN(C(=O)CCOCCOCCOCCOCCOCCOCCOCCOCCOCCOCCOCCOCCOC)CC7)cc(OC)c(c7c(OC)c(Br)c(O)c(c2=O)c47)c65)C(C(C)=O)C(C)=C3)CC1 (stereo not shown) [HB-31d-Br-PEG12] has what recorded molar extinction coefficient?
Reply: 31,500 M^−1cm^−1

Query: Item COc1c(NCS(=O)(=O)O)c2c(=O)cc(OC)c3c4c(OC)cc(=O)c5c(O)c(NCCCS(=O)(=O)O)c6c(c(c1CC(C)=C6)c23)c54 [HC-45b] has what recorded molar extinction coefficient?
Reply: 21,500 M^−1cm^−1

Query: Fill in the blank: the reported molar extinction coefficient of COc1c(NCCC2CCC(O)CC2)c2c(=O)cc(OC)c3c4c(OC)cc(=O)c5c(O)c(NCCC6CCC(O)CC6)c6c(c(c1C(C(C)=O)C(C)=C6)c23)c54 (stereo not shown) [HB-18b] is ____.
Reply: 24,500 M^−1cm^−1

Query: Query (compound): CCCNc1c2c3c4c(c(OC)c(=O)c5c(O)cc(OC)c(c6c(OC)cc(NCCC)c(c1=O)c63)c54)C(C(C)=O)C(C)=C2 (stereo not shown) [HB-33c] ; field requested: molar extinction coefficient
Reply: 34,500 M^−1cm^−1

Query: # lookup: molar extinction coefficient of COc1c2c3c4c(c(NCC5CCC(C(=O)O)CC5)c(=O)c5c(NCC6CCC(C(=O)O)CC6)cc(OC)c(c6c(OC)cc(O)c(c1=O)c63)c54)C=C(C)C2C(C)=O (stereo not shown) [HB-13c]
Reply: 29,500 M^−1cm^−1

Query: Request the reported molar extinction coefficient associated with COCCOCCOCCOCCOCCOCCOC(=O)C1CCC(Nc2c3c4c5c(c(OC)c(=O)c6c(NC7CCC(C(=O)OCCOCCOCCOCCOCCOCCOC)CC7)cc(OC)c(c7c(OC)cc(O)c(c2=O)c74)c65)C(C(C)=O)C(C)=C3)CC1 (stereo not shown) [HB-14d-PEG6]
Reply: 31,500 M^−1cm^−1

Query: Dear colleague, I am looking for the recorded molar extinction coefficient of the following compound: COc1c(NCCCC(=O)NCCCC[N+](C)(C)C)c2c(=O)cc(OC)c3c4c(OC)cc(=O)c5c(O)c(NCCCC(=O)NCCCC[N+](C)(C)C)c6c(c(c1CC(C)=C6)c23)c54 [HC-8b-NH—C4-N^+]
Reply: 30,500 M^−1cm^−1

====

TEST: absorption spectrum (maximum absorption wavelength, molar extinction coefficient)
Assay type: physicochemical
# molar extinction coefficient annotations

Completed entries (count: 3):
COc1c(O)c2c(=O)cc(OC)c3c4c(OC)cc(=O)c5c(NC6CCC(C(=O)O)C6)c(NC6CCC(C(=O)O)C6)c6c(c(c1C(C(C)=O)C(C)=C6)c23)c54 (centres unmarked) [HB-19a]	25,500 M^−1cm^−1
COCCOC(=O)C1CCCCC1Nc1c(NC2CCCCC2C(=O)OCCOC)c2c(=O)cc(OC)c3c4c(OC)cc(=O)c5c(O)c(OC)c6c(c(c1C=C(C)C6C(C)=O)c23)c54 (centres unmarked) [HB-16a-PEG1]	30,500 M^−1cm^−1
CCCCCCNc1c(O)c2c(=O)cc(OC)c3c4c(OC)cc(=O)c5c(NCCCCCC)c(OC)c6c(c(c1C=C(C)C6)c23)c54 [HC-34b]	31,500 M^−1cm^−1

Turning now to a further compound:
Query: Query (compound): COCCOCCOCCOCCOCCOCCOCCOCCOCCOCCOCCOCCOCCN1CCC(CNc2c3c4c5c(c(OC)c(=O)c6c(NCC7CCN(CCOCCOCCOCCOCCOCCOCCOCCOCCOCCOCCOCCOCCOC)CC7)cc(OC)c(c7c(OC)cc(O)c(c2=O)c74)c65)C(C(C)=O)C(C)=C3)CC1 (centres unmarked) [HB-32d-PEG12] ; field requested: molar extinction coefficient
Reply: 31,500 M^−1cm^−1
